The reported measurements were obtained from the RNAGym collection of RNA variant scans (doi:10.7554/elife.80360).

Examples of variants with documented self-cleavage follow.
B1: HDV Ribozyme (parent)
chain: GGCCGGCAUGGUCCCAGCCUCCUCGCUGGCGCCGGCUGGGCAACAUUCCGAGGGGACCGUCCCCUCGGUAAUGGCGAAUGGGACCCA

# Variants of: B1
# experimental details: self-cleavage, relative activity (ratio to wild type); higher = more cleavage; co-transcriptional

Here is how some variants turned out for self-cleavage.
> print(dat)
   sequence.variant  value.reported
1         G74U G80U          0.0956
2          C7G G39A           0.147
3         U12A C64U           0.178
4         A43U C62U           0.394
5         C22G C36U           0.108
6          G6U C62A            0.54
7         C26U A70U            1.01
8         G28A G55U           0.056

Input: Given the variant C30A G80U , what is its reported self-cleavage?
Output: 0.153

Input: Let us now turn to C4A C32A
Output: 0.0332

Input: And what about the variant U23G C75G ?
Output: 0.111

Input: Do the same for A70C G76U please
Output: 1.05

Input: And what about the variant U12A U69C ?
Output: 0.35

Input: Moving on to U47A G76U
Output: 0.742

Input: Input A51G C85G
Output: 0.984

Input: // query: C7U C30U
Output: 0.483
